test: NOD1 signaling inhibitors, primary screen, cell-based, luminescence, uHTS (AID 1578); settings: NOD1-driven NF-kB luciferase reporter cells, at 4 µM, hits give high values;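 also: HEK-293T reporter cells stimulated with the NOD1 agonist gamma-tri-DAP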
About 3,000 (1%) of roughly 290,000 compounds were called active. Many of the other results were omitted from the sample, so actives are more common in it than they were.
Kindly state inhibition for each of the entries shown.
Answers are plain numbers, in %.

List the reported inhibition of each compound below.
1. O=[N+]([O-])c1cc(S(=O)(=O)N2CCCC2)ccc1N/N=C1/CCCc2ccccc21
2. O=C(Nc1nc(-c2nc3ccccc3s2)cs1)c1ccc(S(=O)(=O)N2CCOCC2)cc1
3. CN(Cc1ccccc1F)c1ncnc2sccc12
4. Cc1cc(C)c(S(=O)(=O)c2ccccc2)c(OC(=O)c2c(F)cccc2F)n1
5. C=CCOC(=O)C1=C(C)Nc2nnnn2C1c1cc(OC)ccc1OC (stereo not given)

[13.3, 47.5, -28.7, -38.9, -1.8]
